- TARGET: Prostaglandin G/H synthase 1 (Ovis aries)
- ASSAY EXPLANATION: Inhibition of sheep COX1 at 200 uM in presence of 1 uM arachidonic acid
Overview of reported inhibition across a group of compounds:
Write the value in % as a bare number.

Below, 3 compounds whose answers are already recorded.
[
  {
    "COMPOUND STRING": "O=C1CSC(Nc2nccs2)=N1",
    "READOUT": "inhibition",
    "DATA VALUE": 0
  },
  {
    "COMPOUND STRING": "COc1ccc(/C=C2/S/C(=N/c3nccs3)NC2=O)cc1",
    "READOUT": "inhibition",
    "DATA VALUE": 8
  },
  {
    "COMPOUND STRING": "O=C1N/C(=N\\c2nccs2)S/C1=C/c1ccc([N+](=O)[O-])cc1",
    "READOUT": "inhibition",
    "DATA VALUE": 60
  }
]

Q) Reported inhibition for `O=C1N/C(=N\c2nccs2)S/C1=C/c1cccc(Cl)c1` : what is it?
A) 90
